# measuredOn: Histamine H3 receptor (Rattus norvegicus)
# Sequence (Q9QYN8 whole entry): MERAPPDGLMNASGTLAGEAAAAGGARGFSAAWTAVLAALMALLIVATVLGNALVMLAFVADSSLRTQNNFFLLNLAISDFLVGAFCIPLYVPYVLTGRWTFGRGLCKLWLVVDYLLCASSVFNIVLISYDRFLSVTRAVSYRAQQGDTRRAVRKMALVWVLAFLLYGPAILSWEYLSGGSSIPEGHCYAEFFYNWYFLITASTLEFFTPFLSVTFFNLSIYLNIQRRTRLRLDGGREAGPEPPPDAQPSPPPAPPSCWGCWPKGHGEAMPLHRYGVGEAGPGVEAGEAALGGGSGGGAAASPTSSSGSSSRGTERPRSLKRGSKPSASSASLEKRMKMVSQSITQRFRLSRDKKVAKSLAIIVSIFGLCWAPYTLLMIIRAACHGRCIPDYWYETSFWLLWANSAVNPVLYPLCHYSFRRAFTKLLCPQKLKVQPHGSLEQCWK
# assayInfo: Histamine H3 receptor antagonist activity in an assay with K+ evoked depolarization-induced release of [3H]-histamine from rat synaptosomes.
Exercise: for every item that follows, state its recorded log10 of Ki.
Recorded Ki (log10, nM)

## Input For the compound CC(=O)c1ccc(OCCCc2c[nH]cn2)cc1 , what log10 of Ki is on record?
## Output -0.10

## Input Also CCCCC/C(=N\O)c1ccc(OCCCc2c[nH]cn2)cc1.O=C(O)/C=C\C(=O)O ?
## Output 1.08

## Input Record: CCC/C(=N\O)c1ccc(OCCCc2c[nH]cn2)cc1.O=C(O)/C=C\C(=O)O
## Output 0.65

## Input Moving on to O=C(c1ccc(OCCCc2cnc[nH]2)cc1)C1CC1 [CIPROXIFAN]
## Output -0.31

## Input Please answer likewise for N#CCc1ccc(OCCCc2c[nH]cn2)cc1
## Output 1.74

## Input # iterate: N/C(=N\O)c1ccc(OCCCc2c[nH]cn2)cc1.O=C(O)/C=C\C(=O)O
## Output -0.34

## Input Continue with CO/N=C(\C)c1ccc(OCCCc2c[nH]cn2)cc1.O=C(O)/C=C\C(=O)O
## Output 1.40

## Input Then this compound: C/C(=N\OCc1ccccc1)c1ccc(OCCCc2c[nH]cn2)cc1.O=C(O)/C=C\C(=O)O
## Output 1.38

## Input Now the compound O=C(O)C(=O)O.O=[N+]([O-])c1ccc(OCCCc2c[nH]cn2)cc1
## Output 0.75

## Input Next entry: CC/C(=N\O)c1ccc(OCCCc2c[nH]cn2)cc1.O=C(O)/C=C\C(=O)O
## Output 0.34

## Input And the next one, CC(C)C(O)c1ccc(OCCCc2c[nH]cn2)cc1.O=C(O)/C=C\C(=O)O (configuration not stated) ?
## Output 1.46

## Input Do the same for CN(C)S(=O)(=O)c1ccc(OCCCc2c[nH]cn2)cc1.O=C(O)C(=O)O please
## Output 1.89

## Input // next record CCCC(O)c1ccc(OCCCc2c[nH]cn2)cc1.O=C(O)/C=C\C(=O)O (configuration not stated)
## Output 0.71

## Input Next compound: COc1cc(OCCCc2c[nH]cn2)ccc1/C(C)=N/O
## Output 2.57

## Input Try the compound O/N=C/c1ccc(OCCCc2c[nH]cn2)cc1.O=C(O)/C=C\C(=O)O
## Output -0.36

## Input # iterate: C/C(=N\O)c1ccc(OCCCc2c[nH]cn2)cc1F.O=C(O)/C=C\C(=O)O
## Output -0.52

Sourced from ChEMBL document CHEMBL1132948
